Listed below: %Inh values for each entry.
- System: MERTK;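 also: KINOMEscan kinase panel screen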
- EXPERIMENTAL_PARAMETERS: concentration: 1 μM,replicates: in singlicate; n = 1
The reply should consist of the numeric value with the unit placed after it.

Example entries and their recorded answers appear below.
C[C@@H]1CNc2c(sc3ccc4nc(-c5ccc(O)cc5)ccc4c23)C(=O)N1; 62%
Cn1ccc2ncnc(Oc3ccc(NC(=O)Nc4cccc(C(F)(F)F)c4)c(F)c3)c21; 98%
O=c1[nH]cc(-c2ccc(O)cc2)c2sc(-c3ccncc3)cc12 [GSK1033723]; 0%
CCn1c(-c2nonc2N)nc2cncc(Br)c21 [SB-738004]; 0%

Consider the compound COc1cc2c(Nc3ccc(NC(=O)c4ccccc4)cc3)ncnc2cc1OCCCN1CCOCC1 [GSK301329] and give its measured %Inh.
65%

I have this compound here, COc1cccc(OC)c1C(=O)Nc1cccc(-c2nn3ccccc3c2-c2ccnc(Nc3cccc(F)c3)n2)c1 [GSK361065] , and I need its recorded %Inh.
50%

Tell me the measured %Inh of CN1CCN(CCCNc2nccc(-c3c(-c4ccc(F)cc4)nn4cc(C(N)=O)ccc34)n2)CC1 [GW622475] , please.
49%

Quick check: %Inh of `O=C(Nc1cccc(Oc2ccc3nccn3n2)c1)Nc1cccc(C(F)(F)F)c1` ?
24%
